assay: Half life in Sprague-Dawley rat at 10 mg/kg, po; assay type: ADME, organism-based; set-up: dose 10 mg/kg, route oral; conditions: in vivo
MEASURED_PROPERTY: half-life

What measured half-life goes with CCOc1cc(S(=O)(=O)c2ccc3c(c2)nc(C(C)(C)C)n3CC2CCOCC2)ccn1 ?
3.4 h

----------
Some compounds, each annotated with its measured Efficacy.
target: Cannabinoid receptor 2 (Homo sapiens); test: Agonist activity at human CB2 receptor; format: functional

>  <COMPOUND>
CCS(=O)(=O)c1ccc2c(c1)nc(C(C)(C)C)n2CC1CCCCC1

>  <TARGET_DESC>
Cannabinoid receptor 2 (Homo sapiens)

>  <Efficacy>
104%

$$$$

Efficacy for CCOc1ccc(Cc2nc3cc(S(=O)(=O)CC)ccc3n2CC2CCOCC2)cc1 ?
44%

Fill in: Efficacy of CCS(=O)(=O)c1ccc2c(c1)nc(CC(C)C)n2CC1CCOCC1 is ___
101%

I have this compound here, CCS(=O)(=O)c1ccc2c(c1)nc(C(C)C)n2CC1CCCCC1 , and I need its recorded Efficacy.
101%

Quick check: Efficacy of CCS(=O)(=O)c1ccc2c(c1)nc(C1CC1)n2CC1CCOCC1 ?
109%

# Efficacy lookup, item CCS(=O)(=O)c1ccc2c(c1)nc(C(C)(C)C)n2CC1CCOCC1
120%

Reported Efficacy for [O-][S+](Cc1ccc(Cl)cc1)c1cc2nc(C3CCCCC3)[nH]c2cc1Cl (configuration not stated) : what is it?
> 100%

----------
This section presents compounds with their documented log10(EC50) values.
molecular target: Cannabinoid receptor 2 (Homo sapiens, UniProt P34972); test: Agonist activity at human CB2 receptor
Sequence (P34972 whole entry): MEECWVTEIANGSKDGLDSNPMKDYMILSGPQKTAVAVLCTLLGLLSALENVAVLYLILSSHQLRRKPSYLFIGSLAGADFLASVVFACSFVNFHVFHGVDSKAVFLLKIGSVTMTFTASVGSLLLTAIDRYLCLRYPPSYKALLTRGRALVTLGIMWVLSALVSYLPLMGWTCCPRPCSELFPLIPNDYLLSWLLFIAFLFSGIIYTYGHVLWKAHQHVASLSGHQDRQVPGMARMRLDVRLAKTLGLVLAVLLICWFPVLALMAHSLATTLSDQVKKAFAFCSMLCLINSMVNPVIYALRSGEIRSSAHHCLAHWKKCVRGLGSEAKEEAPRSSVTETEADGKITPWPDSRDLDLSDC
Transform log10 | Measure EC50 | Unit nM

Sample answers from the record:
>  <COMPOUND>
CCOc1ccc(Cc2nc3cc(S(=O)(=O)CC)c(Cl)cc3n2CC2CCCCC2)cc1

>  <NUMERIC_VALUE>
0.70

$$$$
>  <COMPOUND>
CC(C)(C)c1nc2cc(S(=O)(=O)c3ccccc3)ccc2n1CC1CCCCC1

>  <NUMERIC_VALUE>
0.08

$$$$
>  <COMPOUND>
CC(C)(C)c1nc2cc(S(=O)(=O)c3c(Cl)cccc3Cl)ccc2n1CC1CCOCC1

>  <NUMERIC_VALUE>
-0.40

$$$$

What does the data say about its log10(EC50)? Entry: CCS(=O)(=O)c1ccc2c(c1)nc(C)n2CC1CCCCC1
1.49

# log10(EC50) lookup, item CC(C)(C)c1nc2cc(S(=O)(=O)c3ccncc3)ccc2n1CC1CCOCC1
0.08

Look at this compound and give its reported log10(EC50). CC(=O)N(C)Cc1ccc(S(=O)(=O)c2ccc3c(c2)nc(C(C)(C)C)n3CC2CCOCC2)cc1
0.20

----------
assay: Cmax in Sprague-Dawley rat at 10 mg/kg, po; type: ADME, organism-based; design: dose 10 mg/kg, route oral; details: in vivo
MEASURED_PROPERTY: Cmax (ng/mL)
Could you give me the number in ng/mL? Just the number is fine.

GET /values?readout=Cmax&item= CCOc1cc(S(=O)(=O)c2ccc3c(c2)nc(C(C)(C)C)n3CC2CCOCC2)ccn1
731

----------
target: UniProt P34972; test: Agonist activity at human CB2 receptor
EC50 less than 2 nM is TRUE; EC50 greater than or equal to 2 nM is FALSE.

# example entries with known answers
>  <MOLECULE>
CCS(=O)(=O)c1ccc2c(c1)nc(C(C)(C)C)n2CC1CCCCC1

>  <ASSIGNED_LABEL>
TRUE

$$$$
>  <MOLECULE>
CC(C)(C)c1nc2cc(S(=O)(=O)c3ccc(CN)cc3)ccc2n1CC1CCOCC1

>  <ASSIGNED_LABEL>
FALSE

$$$$
>  <MOLECULE>
CC(C)(C)c1nc2cc(S(=O)(=O)CCO)ccc2n1CC1CCOCC1

>  <ASSIGNED_LABEL>
FALSE

$$$$
>  <MOLECULE>
CC(C)(C)c1nc2cc(S(=O)(=O)c3ccc(C#N)cc3)ccc2n1CC1CCOCC1

>  <ASSIGNED_LABEL>
TRUE

$$$$

Consider the molecule Cc1cc(S(=O)(=O)c2ccc3c(c2)nc(C(C)(C)C)n3CC2CCOCC2)ccn1 . Is its EC50 strictly less than 2 nM?
TRUE

Hi there! Is EC50 for CC(C)(C)c1nc2cc(S(=O)(=O)c3ccco3)ccc2n1CC1CCOCC1 below 2 nM, do you know?
TRUE

Is EC50 of CC(C)(C)c1nc2cc(S(=O)(=O)C(F)(F)c3ccc(C#N)cc3)ccc2n1CC1CCCCC1 strictly below 2 nM?
TRUE

Please state whether EC50 is below 2 nM for CCOc1ccc(Cc2nc3cc(SCC)c(Cl)cc3n2CC2CCOCC2)cc1
FALSE

Does the reported EC50 of CC(=O)NCCCS(=O)(=O)c1ccc2c(c1)nc(C(C)(C)C)n2CC1CCOCC1 stay below 2 nM?
FALSE

----------
experiment: Metabolism in human liver microsomes after 15 mins
Ranges used to classify metabolized at 0.25 h: lower segment: < 30%; middle segment: ≥ 30% and < 60%; upper segment: ≥ 60%

Worked set:
>  <SMILES_REPRESENTATION>
CC(C)(C)c1nc2cc(S(=O)(=O)CCCC(F)(F)F)ccc2n1CC1CCOCC1

>  <ASSIGNED_LABEL>
middle segment

$$$$
>  <SMILES_REPRESENTATION>
CC(C)(C)c1nc2cc(S(=O)(=O)c3ccncc3)ccc2n1CC1CCOCC1

>  <ASSIGNED_LABEL>
lower segment

$$$$
>  <SMILES_REPRESENTATION>
CC(C)(C)c1nc2cc(S(=O)(=O)CCO)ccc2n1CC1CCOCC1

>  <ASSIGNED_LABEL>
lower segment

$$$$
>  <SMILES_REPRESENTATION>
CCOc1ccc(Cc2nc3cc(S(=O)(=O)CC)c(Cl)cc3n2CC2CCOCC2)cc1

>  <ASSIGNED_LABEL>
upper segment

$$$$
>  <SMILES_REPRESENTATION>
CCOc1ccc(Cc2nc3cc(S(=O)(=O)CC)ccc3n2CC2CCOCC2)cc1

>  <ASSIGNED_LABEL>
middle segment

$$$$
>  <SMILES_REPRESENTATION>
CC(C)(C)c1nc2cc(S(=O)(=O)Cc3ccc(C#N)cc3)ccc2n1CC1CCCCC1

>  <ASSIGNED_LABEL>
upper segment

$$$$
>  <SMILES_REPRESENTATION>
CC(C)(C)c1nc2cc(S(=O)(=O)c3ccccc3)ccc2n1CC1CCCCC1

>  <ASSIGNED_LABEL>
lower segment

$$$$
>  <SMILES_REPRESENTATION>
CCOc1ccc(Cc2nc3cc(S(=O)(=O)CC)c(Cl)cc3n2CC2CCCCC2)cc1

>  <ASSIGNED_LABEL>
upper segment

$$$$

Class? Entry: CCOc1cc(S(=O)(=O)c2ccc3c(c2)nc(C(C)(C)C)n3CC2CCOCC2)ccn1
middle segment

Into which bin does this compound go? CC(C)(C)c1nc2cc(S(=O)(=O)CC3CC3)ccc2n1CC1CCOCC1
lower segment

----------
The following compounds are listed with their measured pEC50 values.
target: Cannabinoid receptor 2 (Homo sapiens, UniProt P34972); assay: Agonist activity at human CB2 receptor
// pEC50 is dimensionless: -log10 of concentration (M)

>  <COMPOUND>
CCOc1ccc(Cc2nc3cc([S+]([O-])CC)c(Cl)cc3n2CC2CCOCC2)cc1 (centres undefined)

>  <MEASURED_PROPERTY>
pEC50

>  <NUMERIC_VALUE>
7.70

$$$$

Consider the compound shown here: CCOc1ccc(Cc2nc3cc(SCC)c(Cl)cc3n2CC2CCCCC2)cc1 What is its recorded pEC50?
6.90

Which value of pEC50 has been reported for CC(C)(C)c1nc2cc(S(=O)(=O)CCCC(F)(F)F)ccc2n1CC1CCOCC1 in the records?
9.00

----------
target: UniProtKB P34972; experiment: Agonist activity at human CB2 receptor
pEC50: −log10 of the molar value.
The threshold is inclusive: pEC50 of exactly 7 counts as 1 (yes); values below receive 0 (no).

These solved cases illustrate the format of a correct answer.
>  <COMPOUND>
CCS(=O)(=O)c1ccc2c(c1)nc(C(C)C)n2CC1CCCCC1

>  <ASSIGNED_LABEL>
1 (yes)

$$$$
>  <COMPOUND>
[O-][S+](Cc1ccc(Cl)cc1)c1cc2nc(C3CCCCC3)[nH]c2cc1Cl (stereo unspecified)

>  <ASSIGNED_LABEL>
1 (yes)

$$$$
>  <COMPOUND>
CC(C)(C)c1nc2cc(S(=O)(=O)CCN)ccc2n1CC1CCOCC1

>  <ASSIGNED_LABEL>
1 (yes)

$$$$
>  <COMPOUND>
CCOc1ccc(Cc2nc3cc(S(=O)(=O)CC)c(Cl)cc3n2CC2CCOCC2)cc1

>  <ASSIGNED_LABEL>
1 (yes)

$$$$

// switching to the query compound
# check: pEC50 of CCOc1ccc(Cc2nc3cc(SCC)c(Cl)cc3[nH]2)cc1 is greater than or equal to 7
0 (no)
